Parameter vesicle binding response: see the listing below.
PROTOCOL TEXT: inhibitors of CD8+ T cell-vesicle binding, pilot screen, LFA-1/ICAM-1 modulator project, MLPCN validation set, flow cytometry (AID 2523);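 further: mean PE anti-B7-1 fluorescence of CD8+ cells relative to row control; 100% = QL9-loaded vesicles with DMSO vehicle in the same plate row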
CONDITION CONTEXT: 2C mouse CD8+ T cells, at 7 µM, active compounds read low
Record the value in %, omitting the unit from your answer.

CC12CCC(C(=O)N3CCCCC3)([C@H](Br)C1=O)C2(C)C (stereo partly specified)    272
O=C1N=c2ccccc2=C1c1[nH]c(=S)[nH]c1O    181
CC(=O)Oc1cc(C(C)C)c(OCCN(C)C)cc1C    152
CC(=O)O[C@H]1C(=O)[C@@]2(C)[C@H]([C@H](OC(=O)c3ccccc3)[C@]3(O)C[C@H](OC(=O)[C@H](O)C(NC(=O)c4ccccc4)c4ccccc4)C(C)=C1C3(C)C)[C@]1(OC(C)=O)CO[C@@H]1C[C@@H]2O (stereo partly specified)    162
O=C(CCCN1CC=C(n2c(=O)[nH]c3ccccc32)CC1)c1ccc(F)cc1    237
CC1=CC(C)(C)N2C(=O)C3(NCCc4c3[nH]c3ccccc43)c3cc(C)cc1c32 (stereo unspecified)    162
Cc1cc(OC(C(=O)O)c2ccccc2)c2c(C)c(Cc3ccccc3)c(=O)oc2c1 (stereo unspecified)    160
CCCCC[C@H](O)/C=C/[C@@H]1[C@@H](CCCCCCC(=O)O)[C@@H](O)C[C@H]1O    114

input: Can you look up the measured vesicle binding response of CCCCC[C@H](O)/C=C/[C@@H]1[C@@H](C/C=C\CCCC(=O)O)[C@@H](O)C[C@H]1O for me?
output: 106

input: Field request: vesicle binding response | item: N=C1C(c2ccccc2)=C(O)CN1CCCO
output: 157

input: Would you kindly share the measured vesicle binding response for CCOC(=O)c1oc2cc(OCC(N)=O)ccc2c(=O)c1-c1ccc(OC)c(OC)c1 ?
output: 207

input: Looking for the measured vesicle binding response of CCOc1ccccc1C(=O)NCCC(=O)O , can you help?
output: 64.9

input: Record request: vesicle binding response value, item CN1CCC(=C2c3ccccc3C=Cc3ccccc32)CC1
output: 194

input: I would be grateful if you could share the reported vesicle binding response for C[C@H](NC(=O)Nc1ccccc1F)C(=O)O .
output: 272

input: Give the measured vesicle binding response of CC1(C)C2CCC1(C(=O)O)c1nc3ccccc3nc12 (stereo unspecified) .
output: 372

input: What measured vesicle binding response goes with O=c1[nH]cnc2c1ncn2[C@@H]1O[C@H](CO)[C@@H](O)[C@H]1O ?
output: 140

input: Given the compound CC(=O)N1N=C(c2cccs2)CC1c1ccc(C)o1 (stereo unspecified) , what is its reported vesicle binding response?
output: 145

input: Using the record for C(=C/c1nccc2c1[nH]c1ccccc12)/c1ccc2c(c1)OCO2 , report its vesicle binding response.
output: 170

input: Could you tell me which vesicle binding response is on file for COc1ccc(/C=C\C(=O)c2c(O)ccc3c(C)cc(=O)oc23)cc1OC ?
output: 182

input: Item Cn1cc(CN2CCCC(CO)(Cc3cccc(Cl)c3)C2)cn1 (stereo unspecified) has what recorded vesicle binding response?
output: 57.6

input: Can you share its vesicle binding response? I mean this compound: COc1cc(Cl)cc2c1Sc1ccccc1/C2=C/CCN(C)C
output: 1310
